Quick reference: stabilization factor SF100, Average (Table S2) of the listed items.
# TARGET_UNDER_TEST: 14-3-3γ/ERRγ complex (Homo sapiens, UniProt P61981+P62508)
# Construct: made in house; host or cells: E. coli NiCo21 (DE3)
# Sequence (P61981 whole entry, other chains not shown): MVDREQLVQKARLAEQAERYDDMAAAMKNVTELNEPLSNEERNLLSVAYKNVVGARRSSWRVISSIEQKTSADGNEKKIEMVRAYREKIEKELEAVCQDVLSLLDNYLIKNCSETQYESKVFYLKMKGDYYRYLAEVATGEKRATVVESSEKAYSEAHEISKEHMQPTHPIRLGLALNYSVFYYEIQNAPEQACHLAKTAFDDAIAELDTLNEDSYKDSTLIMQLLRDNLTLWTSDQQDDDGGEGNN
# MEASUREMENT_DESCRIPTION: Fluorescence anisotropy (FA): 14-3-3γ titration to fluorescein-ERRγ phosphopeptide with 100 μM compound
# Type: binding
# RUN_CONDITIONS: KD DMSO control / apparent KD with 100 μM compound, 24 h; average of three experiments
ENDPOINT_LABEL: stabilization factor SF100, Average (Table S2)

COMPOUND	VALUE_MEASURED
CN(C)CCSSCCN(C)C(=O)c1ccc(C=O)cc1 [compound 4]	10.2
CN(C)CCNC(=O)c1ccc(C=O)c(F)c1 [compound 3]	1.0
CN(C)CCSSCCN(C)C(=O)c1cccc(C=O)c1 [compound 8]	20.6
CN(C)CCSSCCN(C)C(=O)c1ccc(F)c(C=O)c1 [compound 9]	7.3
CN(C)CCSSCCN(C)C(=O)c1cc(Br)cc(C=O)c1 [compound 10]	36.9
CN(C)CCSSCCN(C)C(=O)c1cccc(F)c1 [compound 1, reference compound]	4.6
CN(C)CCSSCCN(C)C(=O)c1ccc(C=O)c(Br)c1 [compound 6]	17.8
CN(C)CCSSCCN(C)C(=O)c1ccc(C=O)c(F)c1 [compound 5]	20.4
CN(C)CCSSCCN(C)S(=O)(=O)c1ccc(C=O)cc1 [compound 7]	11.2
